Test: modulators of MEP2-GFP levels in yeast, confirmation, S. cerevisiae, flow cytometry GFP, cherry picks (AID 2272);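 note: ratio of well signal to plate DMSO mean so 100% equals DMSO level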
Conditions: S. cerevisiae MEP2-GFP strain, 3 h, at 10 µM, stronger effect = higher value
Form field: GFP response vs DMSO (one value per entry).
Kindly provide the numeric value in % only, without the unit symbol.

O=c1c2c(-c3ccc(Cl)cc3)csc2ncn1/N=C/c1cccc([N+](=O)[O-])c1O
99.5

Query block: Name the reported GFP response vs DMSO value associated with the molecule O=C(O)CCc1ccc(-c2ccc(Cl)cc2)o1
Result block: 99

====

Assay: RPL19A-GFP modulators in TOR pathway yeast, confirmation, cell-based, S. cerevisiae, flow cytometry, second cherry pick (AID 2623);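 note: median GFP channel fluorescence per well over the all cells gate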
Details: S. cerevisiae RPL19A-GFP strain, 3 h, at 10 µM, stronger effect = lower value, 100% means same as DMSO wells
The other results are listed elsewhere or left out. Active and inactive are the calls of the source.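 The calls were made as follows: active = under 65% GFP response relative to DMSO; inconclusive = yeast strain with under 70 measured events; inactive = the rest.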
Experimental readout: GFP response vs DMSO

The following compounds have reported results that may help.
Cc1ccc(S/C(=N\S(=O)(=O)c2ccc(Cl)cc2)c2ccccc2)cc1
98% (inactive)
COc1ccc(C)cc1NC(=O)CSc1nc(SC)ns1
100% (inactive)
COc1ccc2nc(N3CCN(C(=O)c4ccc([N+](=O)[O-])o4)CC3)sc2c1
87% (inactive)
CC(C)[C@@H]1COC(c2cccc(C3=N[C@H](C(C)C)CO3)c2)=N1
101% (inactive)
O=C(NC(=S)NC1CCS(=O)(=O)C1)c1cccc([N+](=O)[O-])c1 (stereo unspecified)
101% (inactive)

Query block: What measured GFP response vs DMSO goes with CCOC(=O)c1cnc(SCC(=O)NCc2ccco2)nc1N ?
Result block: 96.8% (inactive)

Query block: Which GFP response vs DMSO value belongs to COc1ccc(C2(C)ON(c3ccccc3C(F)(F)F)C2=O)cc1 (stereo unspecified) ?
Result block: 100% (inactive)

Query block: Given the compound CCn1c(SCCC(C)C)nnc1-c1c[nH]c2ccccc12 , what is its reported GFP response vs DMSO?
Result block: 96.3% (inactive)

Query block: Could you tell me which GFP response vs DMSO is on file for COc1ccc(-c2nc(CS(=O)(=O)CC(=O)NCc3cccc(Br)c3)c(C)o2)cc1 ?
Result block: 101% (inactive)

Query block: Which GFP response vs DMSO value belongs to O=C(Nc1nnc(-c2ccc(Cl)cc2)o1)c1ccccc1Br ?
Result block: 99.6% (inactive)

Query block: May I ask what GFP response vs DMSO has been recorded for COC(=O)C[n+]1cccc2ccccc21 ?
Result block: 100% (inactive)

Query block: Given Cc1cc(C)c2nc3nc(C)cc(C)c3c(N)c2c1 , state its recorded GFP response vs DMSO.
Result block: 76.7% (inactive)

====

Assay: RPL19A-GFP modulators, yeast TOR pathway, confirmation, cell-based, S. cerevisiae, flow cytometry, cherry picks, mother/daughter gates (AID 2270)
Conditions: S. cerevisiae RPL19A-GFP strain, 3 h, measured here: mother cell gate, at 10 µM, stronger effect = lower value, 100 = same GFP as DMSO wells
The entries below are paired with their reported GFP response vs DMSO.
Return type: number; implicit unit %.

Some solved cases for reference:
N/C(Cc1ccc(Cl)cc1Cl)=N\OC(=O)c1ccccc1
89.4
O=C1CC(c2ccccc2)CN1S(=O)(=O)c1ccccc1 (stereo unspecified)
98.9
O=c1[nH]c(CN2CCCCC2)nc2c1C1(CCCCC1)Cc1ccccc1-2
100
Cc1onc(-c2ccccc2)c1C(=O)N1CCC(C)CC1
91.6
O=C(NCCCSc1ccccc1)c1cc(Br)ccc1O
99.2

# context switch: different molecule, same GFP response vs DMSO
Query block: # GFP response vs DMSO lookup, item Oc1c(C(Nc2cccc(C(F)(F)F)c2)c2ccncc2)ccc2cccnc12 (stereo unspecified)
Result block: 102

====

Target: ATP-binding cassette sub-family B member 6 (Homo sapiens) (UniProt Q9NP58)
Sequence (Q9NP58 whole entry, looked up): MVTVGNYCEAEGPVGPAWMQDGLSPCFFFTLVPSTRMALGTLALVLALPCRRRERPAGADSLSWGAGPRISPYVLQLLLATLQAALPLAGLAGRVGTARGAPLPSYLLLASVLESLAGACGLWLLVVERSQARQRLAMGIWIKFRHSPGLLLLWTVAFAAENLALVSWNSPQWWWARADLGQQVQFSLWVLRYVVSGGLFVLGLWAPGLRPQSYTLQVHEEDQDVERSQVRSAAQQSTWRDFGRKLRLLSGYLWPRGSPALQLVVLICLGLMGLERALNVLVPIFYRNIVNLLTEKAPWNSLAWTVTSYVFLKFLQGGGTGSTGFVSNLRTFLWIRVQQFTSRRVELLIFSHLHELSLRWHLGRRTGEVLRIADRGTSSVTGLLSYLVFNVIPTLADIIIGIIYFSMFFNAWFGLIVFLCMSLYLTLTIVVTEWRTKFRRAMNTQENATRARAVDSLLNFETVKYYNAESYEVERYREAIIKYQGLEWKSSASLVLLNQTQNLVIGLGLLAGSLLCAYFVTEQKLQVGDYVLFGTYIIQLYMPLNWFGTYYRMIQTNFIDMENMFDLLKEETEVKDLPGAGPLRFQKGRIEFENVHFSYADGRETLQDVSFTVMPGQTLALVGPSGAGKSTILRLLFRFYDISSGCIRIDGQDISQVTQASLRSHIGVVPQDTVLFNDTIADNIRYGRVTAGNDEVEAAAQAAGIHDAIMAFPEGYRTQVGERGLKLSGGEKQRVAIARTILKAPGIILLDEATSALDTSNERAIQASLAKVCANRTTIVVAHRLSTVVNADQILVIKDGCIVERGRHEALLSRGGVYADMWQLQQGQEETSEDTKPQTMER
Test: ABCB6 transporter inhibitors, pilot screen, K562-ABCB6 cells, flow cytometry, validation set (AID 588550);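 note: 0% = DMSO wells and 100% = benzethonium chloride 70 µM positive control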
Settings: K562-ABCB6 porphyrin accumulation, 1 h, at 10 µM, stronger effect = higher value
Reported inhibition by item:
Could you give me the number in %? Just the number is fine.

// worked examples, inhibition included
CC(=O)Oc1ccc(C2OC(=O)c3ccccc3N2C(C)=O)cc1 (configuration not stated)
8
COC(=O)c1[nH]c2ccc(F)cc2c1NC(=O)C1=COCCO1
7
CCn1cc(C(=O)O)c(=O)c2cc(F)c(N3CCNCC3)cc21
2

Query block: Return reported inhibition; argument: CC1(C)NC(C(=O)O)Cc2c1[nH]c1ccccc21 (configuration not stated)
Result block: 8

Query block: # input molecule: CCOc1ccc(C(=O)Nc2ccc(N3CCN(C(C)=O)CC3)cc2)cc1[N+](=O)[O-] ; wanted: its inhibition
Result block: 11

Query block: Return reported inhibition; argument: O=C(C1CCCCC1)N1CC(=O)N2CCc3ccccc3C2C1 (configuration not stated)
Result block: 3

Query block: // lookup inhibition for COc1ccc(-c2cc3cc(OC)c(OC)cc3c(C)n2)cc1
Result block: -2

Query block: I am curious: what inhibition value has been reported for Cc1cc(C(C)(C)C)c(O)c(C)c1CC1=NCCN1 ?
Result block: 12

====

Experiment: inhibitors of fungal efflux pumps CDR1, CDR2, MDR1, pilot screen, validation compound set, multiplex, phenotypic (AID 588506);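 note: Nile Red retained in cells so higher fluorescence means more efflux inhibition; 0 = negative control wells and 1 = enniatin B 25 µM full block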
Conditions: S. cerevisiae pump-expressing triplex, Nile Red efflux flow cytometry; at 10 µM; the pumps come from Candida albicans
Calls of active or inactive are those of the source.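 How the source made its calls: active means efflux inhibition above 0.42, the validation set average plus 4 SD; inconclusive means no clear call, values can overlap the other calls; inactive means the rest.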
Respond using exactly one of the listed classes: yes for active, no for inactive

Examples from the recorded data:
CC(C)(C)c1ccc(C(O)CCCN2CCC(C(O)(c3ccccc3)c3ccccc3)CC2)cc1 (stereo unspecified)
yes
COc1cccc(OCc2cc(C3Nc4ccccc4C(=O)N3Cc3ccco3)ccc2OC)c1 (stereo unspecified)
no
COC(=O)c1[nH]c2ccccc2c1NC(=O)CN1CCN(C/C=C/c2ccccc2)CC1
no
O=C(NCCN1CCOCC1)c1ccc(Cl)cc1
yes
CC(C)NCC(O)COc1ccc(CC(N)=O)cc1 (stereo unspecified)
no

Query block: Name the outcome recorded for CCN(CC)Cc1c[nH]c2c(C(=O)OC)cccc12 in the assay.
Result block: no

====

GFP response, % of DMSO values, listed per item
Experiment: modulators of CIT2-GFP expression in yeast, confirmation, S. cerevisiae, GFP fusion, cherry picks, mother/daughter gates (AID 2274)
Details: S. cerevisiae CIT2-GFP strain, flow cytometry, 3 h; at 10 µM; stronger effect = higher value
Calls of active or inactive are those of the source.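 How the source made its calls: active means GFP response above 150% of the DMSO level; inconclusive means fewer than 70 events counted for a yeast strain; inactive means the rest.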

Example entries and their recorded answers appear below.
O=C(/C=C/c1cc(Br)ccc1O)c1ccco1
95% (inactive)
Cc1cc(N2CCN(C(=O)c3ccco3)CC2)n2ncc(-c3ccccc3)c2n1
118% (inactive)
COc1cc(NC(C)=O)ccc1NC(=O)c1cc2ccccc2o1
100% (inactive)
CCOC(=O)C1CCCN(C(=O)c2ccc(-c3ccc([N+](=O)[O-])cc3)o2)C1 (configuration not stated)
100% (inactive)
Cc1cccn2c(=O)c(/C=C(\C#N)C(=O)NCc3ccccc3)c(N3CCC(C(N)=O)CC3)nc12
101% (inactive)
CC(C)c1nnc(-c2ccc(Cl)cc2)c(N(C)C)n1
100% (inactive)

Query block: What measured GFP response, % of DMSO goes with CCc1nnc(NC(=O)c2nc(S(=O)(=O)Cc3ccc(C)cc3)ncc2Cl)s1 ?
Result block: 101% (inactive)

====

// superoxide response (% of plate) lookup, one value per entry
Assay: superoxide lowering in aged yeast cells, pilot screen, validation compound set (AID 2706);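 note: yeast exposed to compound for one week at 30 degrees C before staining; 100% = mean of all compound wells on the same plate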
Conditions: S. cerevisiae aging, superoxide DHE fluorescence; at 10 µM, stronger effect = lower value
Give the number; % is assumed, so skip it.

COc1ccc(-c2cc3cc(OC)c(OC)cc3c(C)n2)cc1
96

Query block: Suppose we examine the compound COc1cc2c(cc1OC)C(Cc1ccc(O)cc1)N(C)CC2 (stereo unspecified) ; what superoxide response (% of plate) value has been reported?
Result block: 104

Query block: superoxide response (% of plate) for CCn1cc(C(=O)O)c(=O)c2cc(F)c(N3CCNCC3)cc21 ?
Result block: 104

====

Listing of entries alongside the reported GFP response, % of DMSO.
Assay: modulators of CIT2-GFP expression in yeast, confirmation, S. cerevisiae, GFP fusion, cherry picks, mother/daughter gates (AID 2274)
Conditions: S. cerevisiae CIT2-GFP strain, flow cytometry, 3 h; measured here: daughter cell gate; at 10 µM; stronger effect = higher value
// note: answer is a bare numeric in %

Query block: Which GFP response, % of DMSO value belongs to COc1cc(SSc2cc(OC)cc([N+](=O)[O-])c2N)c(N)c([N+](=O)[O-])c1 ?
Result block: 112

====

Experiment: yeast TOR pathway RPL19A-GFP modulators, primary screen, cell-based, S. cerevisiae, multiplex flow cytometry (AID 1862);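 note: lower values mimic rapamycin by blocking the RPL19A rise seen in DMSO cells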
Conditions: S. cerevisiae RPL19A-GFP strain, flow cytometry fluorescence, 3 h; at 10 µM; stronger effect = lower value
Records with an inconclusive call do not appear.
Experimental readout: percent of DMSO control GFP (%)
Express it in %; write the number only.

COc1ccc(CNC(=O)C2CCN(C(=O)[C@@H](CC(C)C)NC(=O)OC(C)(C)C)CC2)cc1
98.3

Query block: Recorded percent of DMSO control GFP of C=CCc1ccccc1OCC(O)CNC(C)C (configuration not stated) , please.
Result block: 103

Query block: Recorded percent of DMSO control GFP of CCCC(=O)Nc1ccc(OCC(O)CNC(C)C)c(C(C)=O)c1 (configuration not stated) , please.
Result block: 99

Query block: Please give the measured percent of DMSO control GFP for this molecule: C=CCc1cc(Cl)ccc1OCCOCCN(C)C
Result block: 103
